# tested-target: T1, interleukin-23 receptor (IL-23R), Q5VWK5
# T1 chain: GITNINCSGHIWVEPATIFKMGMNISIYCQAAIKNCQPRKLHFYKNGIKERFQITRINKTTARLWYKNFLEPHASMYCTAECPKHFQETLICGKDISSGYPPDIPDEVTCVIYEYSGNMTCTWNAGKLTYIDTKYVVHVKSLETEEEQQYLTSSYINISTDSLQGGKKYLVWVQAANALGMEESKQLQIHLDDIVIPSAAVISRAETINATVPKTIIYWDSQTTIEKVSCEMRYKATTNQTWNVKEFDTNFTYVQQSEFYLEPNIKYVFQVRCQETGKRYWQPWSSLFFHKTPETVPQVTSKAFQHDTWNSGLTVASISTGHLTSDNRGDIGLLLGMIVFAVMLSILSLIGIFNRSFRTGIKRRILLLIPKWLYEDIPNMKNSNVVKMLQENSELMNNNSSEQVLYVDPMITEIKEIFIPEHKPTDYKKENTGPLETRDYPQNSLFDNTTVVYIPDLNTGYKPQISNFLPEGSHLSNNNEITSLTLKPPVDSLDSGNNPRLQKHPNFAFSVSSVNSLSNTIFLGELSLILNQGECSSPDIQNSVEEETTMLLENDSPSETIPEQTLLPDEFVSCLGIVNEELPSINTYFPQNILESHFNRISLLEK
# assay-notes: cell-based or functional assay
Starred links: 1 amine or outer side, 2 acyl side, 3 side chain; linkers in the order of their positions; H or OH if unused. Positions of bridges follow the written chain, without caps; N, C: chain ends. Non-standard residues stand in square brackets, D forms with d. No end group written: not given here. X1 = 3‑(7-(3-acetamidophenyl)-1H-indol-3-yl)‑2‑aminopropanoic acid, CC(=O)Nc1cccc(-c2cccc3c(CC(N[*:1])C(=O)[*:2])c[nH]c23)c1; Trp(7-Me) = Cc1cccc2c(C[C@H](N)C(=O)O)c[nH]c12; dLys(Me3) = C[N+](C)(C)CCCC[C@@H](N)C(=O)O; 3Pal = N[C@@H](Cc1cccnc1)C(=O)O; Pen = CC(C)(S)[C@H](N)C(=O)O; Thp = NC1(C(=O)O)CCOCC1; Sar = CNCC(=O)O
Parameter: PBMC pSTAT3 IC50. Scope: all listed entries.

R[Pen]ET[X1]K(Ac)[Pen][2‑amino‑3‑(4-(2-aminoethoxy)phenyl)propanoic acid][2‑amino‑3‑(6-hydroxynaphthalen-2-yl)propanoic acid][Thp]EN[3Pal][Sar] (disulfide 2-7 (inferred); ends not checked) [SEQ ID NO: 158] :: < 0.01 nM
[dLys(Me3)][Pen]NT[Trp(7-Me)]K(Ac)[Pen][2‑amino‑3‑(4-(2-aminoethoxy)phenyl)propanoic acid][2‑amino‑3‑(6-hydroxynaphthalen-2-yl)propanoic acid][Thp]EN[3Pal][Sar] (not fully specified (bridges); ends and bridges not checked) [SEQ ID NO: 388] :: < 0.01 nM

// moving on: another record for PBMC pSTAT3 IC50
Entry [Pen]NT[Trp(7-Me)]K(Ac)[Pen][2‑amino‑3‑(4-(2-aminoethoxy)phenyl)propanoic acid][2‑amino‑3‑(6-hydroxynaphthalen-2-yl)propanoic acid][Thp]EN[3Pal][Sar] (not fully specified (bridges); ends and bridges not checked) [SEQ ID NO: 378] has what PBMC pSTAT3 IC50? < 0.01 nM

Hello, the source for this data is patent US20240279281A1, in case you need it.
